Organism: Bos taurus
Assay: Inhibition of NADH oxidase activity of bovine heart mitochondrial […] at 10 uM after 5 mins by spectrophotometric analysis relative to control; values are per cent of control
Give residual activity for every item shown.
Give bare numbers, in %.

Below, 4 molecules whose answers are already recorded.
Cc1nc(N(C)C)nc(CCCCCCCCCCO)c1O ... 15
CCCCCCCCCCc1nc(N(C)C)nc(C)c1O ... 3.9
CCCCCCCCCCCCCCCCc1nc(N(C)C)nc(C)c1O ... 76.9
COC1=C(OC)C(=O)C(CCCCCCCCCCO)=C(C)C1=O ... 13.2

Alright, here's another molecule for you.
Req: For CCCCCCCCCCC1=C(C)C(=O)C(OC)=C(OC)C1=O , what is its reported residual activity?
Resp: 61.5

----------
Tested on: GM15850
Assay: Effect on total ATP level in Friedreich's ataxia disease patient GM15850 cells at 10 uM after 48 hrs by bioluminescence assay relative to control
Type: functional, Homo sapiens
Give measured Activity for each item. Keep answers brief.
Give bare numbers, in %.

Batch lookup, Activity per entry.
1. CCCCCCCCCCc1nc(N(C)C)nc(C)c1O
2. Cc1nc(N(C)C)nc(CCCCCCCCCCO)c1O
3. COC1=C(OC)C(=O)C(CCCCCCCCCCO)=C(C)C1=O
4. CCCCCCCCCCCCCCCCc1nc(N(C)C)nc(C)c1O

Resp:
[74.4, 46.3, 45.6, 90.3]

Req: Field request: Activity | item: CCCCCCCCCCC1=C(C)C(=O)C(OC)=C(OC)C1=O
Resp: 76.4

----------
Experiment: Inhibition of NADH-ubiquinone oxidoreductase in bovine heart mitochondria after 5 mins by spectrophotometric analysis
Set-up: species or system Bos taurus
Value Kind: IC50 (µM)
One number for each entry, in µM.

COC1=C(OC)C(=O)C(CCCCCCCCCCO)=C(C)C1=O ... 6
Cc1nc(N(C)C)nc(CCCCCCCCCCO)c1O ... 1
CCCCCCCCCCc1nc(N(C)C)nc(C)c1O ... 2

Lab note: next compound to report on.
Req: Could you tell me which IC50 is on file for CCCCCCCCCCCCCCCCc1nc(N(C)C)nc(C)c1O ?
Resp: 198

----------
Assay: Effect on total ATP level in Leber's optic atrophy disease patient GM10744 cells at 25 uM after 48 hrs by bioluminescence assay relative to control
Format: functional, Homo sapiens
Value Kind: Activity (%)
Answers are plain numbers, in %.

Cc1nc(N(C)C)nc(CCCCCCCCCCO)c1O ... 20.7
CCCCCCCCCCCCCCCCc1nc(N(C)C)nc(C)c1O ... 83.4
CCCCCCCCCCc1nc(N(C)C)nc(C)c1O ... 40.6
COC1=C(OC)C(=O)C(CCCCCCCCCCO)=C(C)C1=O [IDEBENONE] ... 3

Req: What measured Activity goes with CCCCCCCCCCC1=C(C)C(=O)C(OC)=C(OC)C1=O [DECYLUBIQUINONE] ?
Resp: 47

----------
Species on record: Bos taurus
Assay: Inhibition of NADH oxidase activity of bovine heart mitochondrial […] at 5 uM after 5 mins by spectrophotometric analysis relative to control; values are per cent of control
Provide the recorded residual activity for the entries that follow.
Numbers only, in %.

Example entries and their recorded answers appear below.
CCCCCCCCCCc1nc(N(C)C)nc(C)c1O ... 17.7
COC1=C(OC)C(=O)C(CCCCCCCCCCO)=C(C)C1=O ... 19.3
Cc1nc(N(C)C)nc(CCCCCCCCCCO)c1O ... 22
CCCCCCCCCCC1=C(C)C(=O)C(OC)=C(OC)C1=O ... 82.4

Continue with the molecule presented below.
Req: Any idea what residual activity was measured for CCCCCCCCCCCCCCCCc1nc(N(C)C)nc(C)c1O ?
Resp: 88.6
